# protocolText: PAMPA (parallel artificial membrane permeability assay)
# Format: in vitro ADME
# measurementContext: PAMPA; membrane permeation rate (Pe); 50 mM MOPSO buffer pH 6.5 with 5.0% glycocholic acid, 37° C., 18 hours; read-out: iPAMPA Pe
Positions of bridges follow the written chain, without caps; N, C: chain ends. Non-standard residues stand in square brackets, D forms with d. Residues, ends and D or L forms follow the SMILES beside them. *: point of attachment. NMeF = CN[C@@H](Cc1ccccc1)C(=O)O; NMeI = CC[C@H](C)[C@H](NC)C(=O)O; NMeL = CN[C@@H](CC(C)C)C(=O)O; NMeV = CN[C@H](C(=O)O)C(C)C; NMeA = CN[C@@H](C)C(=O)O; Piperidide = C1CCN(*)CC1; dNMeA = CN[C@H](C)C(=O)O
recordedMetric: Papp at 18 hours, 50 µM (×10⁻⁶ cm/s)
Give bare numbers, in ×10⁻⁶ cm/s.

compound	unitTag	numericReadout
CC[C@H](C)[C@H]1C(=O)N[C@H](C(=O)N2CCCCC2)CC(=O)N(C)[C@H](C)C(=O)N(C)[C@@H](C(C)C)C(=O)N[C@@H](Cc2ccccc2)C(=O)N[C@@H](CC(C)C)C(=O)N(C)[C@@H](C)C(=O)N[C@@H]([C@@H](C)O)C(=O)N[C@@H](Cc2ccccc2)C(=O)N(C)[C@@H](CC(C)C)C(=O)N[C@@H](CC(C)C)C(=O)NCC(=O)N1C [DP-223] ([dNMeA][NMeV]FL[NMeA]TF[NMeL]LG[NMeI]D-Piperidide; lactam N-12)	×10⁻⁶ cm/s	23

Field: next compound
Task: Returns the measured Papp at 18 hours, 50 µM for the input compound. Input: CC[C@H](C)[C@@H]1NC(=O)[C@H](C)N(C)C(=O)[C@H](CC(C)C)N(C)C(=O)[C@H](Cc2ccccc2)NC(=O)[C@H](CC(C)C)N(C)C(=O)[C@H](CC(C)C)N(C)C(=O)[C@H](C)N(C)C(=O)[C@H](Cc2ccccc2)N(C)C(=O)[C@@H](C)N(C)C(=O)C[C@@H](C(=O)N[C@H](C(=O)N2CCCCC2)[C@@H](C)CC)NC(=O)[C@H](CC(C)C)N(C)C(=O)[C@H]([C@@H](C)O)NC(=O)[C@H](CO)NC1=O [DP-956] ([dNMeA][NMeF][NMeA][NMeL][NMeL]F[NMeL][NMeA]IST[NMeL]DI-Piperidide; lactam N-13)
Result: 0.58
